Test system: Staphylococcus aureus
Experiment: Antibacterial activity against Staphylococcus aureus MRSA ATCC 43300 (CO-ADD:GP_020); MIC in CAMBH media using NBS plates, by Resazurin F(560/590)
Format: functional
Settings: Concentration 20 uM, ASSAY_TEST Inhibition of Bacterial Growth, detection method Resazurin, Fluorescence (ex560/em590), MEDIA CAMHB, plate type 384well, CORNING #3640, time 18 hr
I would appreciate it if you labelled entries T when Inhibition is 10% or higher, otherwise F.

Request: API: above_or_equal(metric=Inhibition, cutoff=10%) for item O=C(/C=C\c1ccc(O)c(O)c1)OC1C(O)CC(OC(=O)/C=C/c2ccc(O)c(O)c2)(C(=O)O)CC1O (stereo unspecified)
Response: T

Request: API: above_or_equal(metric=Inhibition, cutoff=10%) for item CCOc1ccc(/C=C2\CCc3ccccc3C2=O)cc1
Response: F

Request: API: above_or_equal(metric=Inhibition, cutoff=10%) for item O=C(Cn1nnc(N2CCCCC2)n1)N/N=C/c1ccccc1O
Response: T

Request: API: above_or_equal(metric=Inhibition, cutoff=10%) for item N#C/C(=C\c1cccnc1)c1ccc(Br)cc1
Response: F

Request: API: above_or_equal(metric=Inhibition, cutoff=10%) for item CNC1(C(N)=O)CCNCC1
Response: T

Request: API: above_or_equal(metric=Inhibition, cutoff=10%) for item C(=C\c1ccccn1)/c1ccccn1
Response: F
